Target: TRPV1 (Rattus norvegicus (Rat), UniProt O35433)
Sequence (O35433 whole entry): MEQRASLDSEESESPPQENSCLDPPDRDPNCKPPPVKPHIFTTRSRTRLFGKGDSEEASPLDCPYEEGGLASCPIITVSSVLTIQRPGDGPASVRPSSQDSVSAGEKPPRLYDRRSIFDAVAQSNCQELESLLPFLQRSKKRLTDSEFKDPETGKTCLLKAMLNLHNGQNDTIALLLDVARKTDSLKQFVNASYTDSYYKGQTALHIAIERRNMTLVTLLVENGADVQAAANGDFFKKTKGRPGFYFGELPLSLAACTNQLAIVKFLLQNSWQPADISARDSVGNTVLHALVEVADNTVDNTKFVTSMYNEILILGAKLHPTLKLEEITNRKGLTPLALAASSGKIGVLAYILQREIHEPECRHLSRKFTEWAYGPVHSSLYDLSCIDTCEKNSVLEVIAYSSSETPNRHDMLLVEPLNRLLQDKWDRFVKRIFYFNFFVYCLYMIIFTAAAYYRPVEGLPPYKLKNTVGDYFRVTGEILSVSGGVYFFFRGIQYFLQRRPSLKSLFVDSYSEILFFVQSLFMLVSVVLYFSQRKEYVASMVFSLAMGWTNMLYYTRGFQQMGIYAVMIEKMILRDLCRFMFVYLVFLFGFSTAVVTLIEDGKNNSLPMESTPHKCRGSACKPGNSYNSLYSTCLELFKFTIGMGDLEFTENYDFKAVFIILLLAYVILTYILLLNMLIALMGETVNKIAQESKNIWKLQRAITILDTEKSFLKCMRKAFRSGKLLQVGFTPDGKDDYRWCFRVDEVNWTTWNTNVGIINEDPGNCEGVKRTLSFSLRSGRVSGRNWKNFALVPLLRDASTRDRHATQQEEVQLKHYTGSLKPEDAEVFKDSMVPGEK
Test: Ca2+ fluorescence measurements in cultured rat dorsal root ganglia neurons (capsaicin-induced calcium uptake)
Format: cell-based
Details: DRG neuron; Table 1, formula IA-C; 300 nM against calcium uptake induced by 30 nM capsaicin; rat DRG neurons; read-out: % inhibition at 300 nM
Outcome label depends on inhibition at 0.3 µM relative to 50%: at/above gives class 1, below gives class 0.

{"columns": ["COMPOUND", "ANSWER_LABEL"],
 "data": [
  ["O=C(NCc1ccc(C(F)(F)F)cc1F)Nc1cccc2[nH]c(=O)[nH]c12", "class 0"],
  ["COc1nc(C(F)(F)F)ccc1CNC(=O)Nc1cccc2c1OCC(=O)N2", "class 1"],
  ["O=C1COc2c(cccc2NC(=O)NCc2ccc(C(F)(F)F)o2)N1", "class 0"],
  ["O=C1COc2c(cccc2NC(=O)NCc2ccc(C(F)(F)F)cc2N2CCCCC2)N1", "class 1"],
  ["Cc1ccc(CNC(=O)Nc2cccc3c2OCC(=O)N3)c(OC(C)C)c1", "class 1"],
  ["CC(C)Oc1cc(C(F)(F)F)ccc1CNC(=O)Nc1cccc2c1OCC(=O)N2", "class 1"],
  ["O=C(NCc1ccc(C(F)(F)F)o1)Nc1cccc2[nH]c(=O)[nH]c12", "class 1"],
  ["CC(C)(C)c1ccc(CNC(=O)Nc2cccc3c2OCC(=O)N3)cc1", "class 1"]
]}

Decide: is the reported value of inhibition at 0.3 µM for O=C(NCc1ccc(F)cc1C(F)(F)F)Nc1cccc2oc(=O)[nH]c12 equal to or greater than 50%?
class 0

Consider next the compound O=C1COc2c(cccc2NC(=O)NCc2ccc(C(F)(F)F)nc2)N1 in the same way.
class 1

Note, next up: O=C1COc2cccc(NC(=O)NCc3ccc(C(F)(F)F)cc3N3CCCC3)c2N1
class 0

----------
Biological target: UniProt:O35433
Assay: Ca2+ fluorescence measurements in cultured rat dorsal root ganglia neurons (capsaicin-induced calcium uptake)
Assay type: cell-based
Settings: DRG neuron; Table 1, formula IA-C; 300 nM against calcium uptake induced by 30 nM capsaicin; rat DRG neurons; read-out: % inhibition at 300 nM
Lab note: compare inhibition at 0.3 µM against 90%. Equal or greater, write YES. Smaller, write NO.

{"columns": ["COMPOUND_STRUCTURE_STRING", "TGT", "ANSWER_LABEL"],
 "data": [
  ["CN(C)CCOc1nc(C(F)(F)F)ccc1CNC(=O)Nc1cccc2[nH]c(=O)[nH]c12", "UniProt:O35433", "NO"]
]}

API: above_or_equal(metric=inhibition at 0.3 µM, cutoff=90%) for item CC(C)Oc1nc(C(F)(F)F)ccc1CNC(=O)Nc1cccc2[nH]c(=O)[nH]c12
YES

Continue with O=C(NCc1ccc(F)cc1)Nc1cccc2[nH]c(=O)[nH]c12
NO

Now the same for O=C1COc2c(cccc2NC(=O)NCc2ccc(C(F)(F)F)cc2N2CCCC2)N1
YES

CC(C)(C)c1ccc(CNC(=O)Nc2cccc3[nH]c(=O)[nH]c23)c(Cl)c1 ?
YES

What do we get for O=C(NCc1ccc(C(F)(F)F)cc1N1CCOCC1)Nc1cccc2[nH]c(=O)[nH]c12 ?
NO

Subsequent entry: O=C1COc2c(cccc2NC(=O)NCc2ccc(C(F)(F)F)cc2)N1
YES

----------
Listed below: reversal of CFA-induced tactile allodynia values for each entry.
System: CFA-induced tactile allodynia
Experiment: CFA-induced tactile allodynia in rats (von Frey filaments)
Format: in vivo
Settings: rat, 30 μmol/kg oral
Reply with just the number (in %).

{"columns": ["COMPOUND_STRUCTURE_STRING", "NUMERIC_READOUT"],
 "data": [
  ["O=C(NCc1ccc(C(F)(F)F)cc1N1CCCC1)Nc1cccc2[nH]c(=O)[nH]c12", 60]
]}

# lookup: reversal of CFA-induced tactile allodynia of O=C1COc2c(cccc2NC(=O)NCc2ccc(Cl)cc2)N1
72

// next record O=C1COc2c(cccc2NC(=O)NCc2ccc(Cl)cc2N2CCCC2)N1
61

Next record, please: O=C(NCc1ccc(Cl)cc1N1CCCC1)Nc1cccc2[nH]c(=O)[nH]c12
62

----------
Biological target: TRPV1 (Rattus norvegicus (Rat))
Assay: Ca2+ fluorescence measurements in cultured rat dorsal root ganglia neurons (capsaicin-induced calcium uptake)
Assay type: cell-based
Details: Table 1; against capsaicin-evoked [Ca2+]i mobilization; rat DRG neurons; read-out: IC50
pIC50: −log10 of the molar value.
Tag: criterion met if measured pIC50 is not below 8, criterion not met if it is.

// known answers, use as guide
{"columns": ["COMPOUND", "ANSWER_LABEL"],
 "data": [
  ["CC(C)Oc1cc(C(F)(F)F)ccc1CNC(=O)Nc1cccc2[nH]c(=O)[nH]c12 [Example 67]", "criterion not met"],
  ["CC(C)(C)c1ccc(CNC(=O)Nc2cccc3c2OCC(=O)N3)cc1 [Example 89]", "criterion not met"],
  ["CN(C)c1cc(C(F)(F)F)ccc1CNC(=O)Nc1cccc2[nH]c(=O)[nH]c12 [Example 4]", "criterion met"]
]}

API: above_or_equal(metric=pIC50, cutoff=8) for item CN(C)c1cc(C(F)(F)F)ccc1CNC(=O)Nc1cccc2c1OCC(=O)N2 [Example 46]
criterion met

What about this compound? O=C1COc2c(cccc2NC(=O)NCc2ccc(C(F)(F)F)cc2N2CCCC2)N1 [Example 47]
criterion met

----------
Molecular target: TRPV1 (Rattus norvegicus (Rat))
Assay: Ca2+ fluorescence measurements in cultured rat dorsal root ganglia neurons (capsaicin-induced calcium uptake)
Format: cell-based
Settings: DRG neuron; Table 1, formula IA-C; 300 nM against calcium uptake induced by 30 nM capsaicin; rat DRG neurons; read-out: % inhibition at 300 nM
Hi, to clarify the labels: rule met covers inhibition at 0.3 µM from 50% upward, rule not met covers anything below 50%.

Consider the following illustrative entries.
{"columns": ["COMPOUND", "ANSWER_LABEL"],
 "data": [
  ["CN(C)c1cc(Cl)ccc1CNC(=O)Nc1cccc2c1OCC(=O)N2 [Example 50]", "rule met"],
  ["Cc1ccc(CNC(=O)Nc2cccc3[nH]c(=O)[nH]c23)c(N2CCCCC2)n1 [Example 40]", "rule met"],
  ["O=C1COc2c(cccc2NC(=O)NCc2ccc(C(F)(F)F)nc2N2CCCCC2)N1 [Example 78]", "rule met"],
  ["O=C(NCc1ccc(C(F)(F)F)cc1N1CCCC1)Nc1cccc2oc(=O)[nH]c12 [Example 30]", "rule not met"],
  ["Cc1ccc(CNC(=O)Nc2cccc3[nH]c(=O)[nH]c23)cc1 [Example 17]", "rule not met"]
]}

Is the recorded value of inhibition at 0.3 µM equal to or greater than 50% for this compound? CN(C)c1ccc(CNC(=O)Nc2cccc3[nH]c(=O)[nH]c23)cc1 [Example 14]
rule not met

Same read-out for O=C(NCc1ccc(C(F)(F)F)cn1)Nc1cccc2[nH]c(=O)[nH]c12 [Example 41] ?
rule met

Try the compound O=C(NCc1ccc(C(F)(F)F)cc1F)Nc1cccc2oc(=O)[nH]c12 [Example 25]
rule not met

// next record Cc1ccc(CNC(=O)Nc2cccc3c2OCC(=O)N3)c(N2CCCC2)c1 [Example 90]
rule not met

Entry to check: O=C(NCc1ccc(Cl)cc1N1CCCC1)Nc1cccc2[nH]c(=O)[nH]c12 [Example 12]
rule met

Subsequent entry: O=C(NCc1ccc(Cl)cc1C(F)(F)F)Nc1cccc2oc(=O)[nH]c12 [Example 28]
rule not met

Follow-up item: O=C(NCc1ccc(C(F)(F)F)cc1N1CCCC1)Nc1cccc2[nH]c(=O)oc12 [Example 35]
rule met

Okay, and O=C(NCc1ccc(N2CCCCC2)cc1)Nc1cccc2[nH]c(=O)[nH]c12 [Example 16] ?
rule met

----------
Biological target: TRPV1 (Rattus norvegicus (Rat), UniProt O35433)
Experiment: Ca2+ fluorescence measurements in cultured rat dorsal root ganglia neurons (capsaicin-induced calcium uptake)
Assay type: cell-based
Conditions: rat DRG neurons; read-out: IC50 against capsaicin-evoked [Ca2+]i mobilization
Documented IC50 across a set of compounds
Output spec: scalar in nM, unitless text.

Reference set (4 entries):
{"columns": ["COMPOUND_STRUCTURE_STRING", "IC50 (nM)"],
 "data": [
  ["O=C1COc2c(cccc2NC(=O)NCc2ccc(Cl)cc2N2CCCC2)N1", 1.8],
  ["O=C(NCc1ccc(C(F)(F)F)cc1N1CCCCC1)Nc1cccc2oc(=O)[nH]c12", 1.9],
  ["CN(C)c1cc(C(F)(F)F)ccc1CNC(=O)Nc1cccc2[nH]c(=O)[nH]c12", 4.07],
  ["CC(C)(C)c1ccc(CNC(=O)Nc2cccc3[nH]c(=O)[nH]c23)c(N2CCCC2)c1", 0.84]
]}

The record that follows has no IC50 shown yet.
Tell me the measured IC50 of CN(C)CCOc1cc(C(F)(F)F)ccc1CNC(=O)Nc1cccc2[nH]c(=O)[nH]c12 , please.
0.1
